experiment: Aqueous solubility of the compound; format: physicochemical
readout-name: solubility

For orientation, consider the following solved cases.
                               smiles_repr  readout_name  experimental_value
0       O=C(O)c1cc(-c2cc(Cl)c3occc3c2)ncn1    solubility           820 µg/mL
1  O=C(O)c1cc(-c2ccc(OC3CCCC3)c(Cl)c2)ncn1    solubility        > 1000 µg/mL
2        O=C(O)c1cc(-c2ccc(Cl)c(Cl)c2)ncn1    solubility           740 µg/mL
3           Cc1ccc(-c2cc(C(=O)O)ncn2)cc1Cl    solubility        > 1000 µg/mL
4      CC(C)Oc1ccc(-c2cc(C(=O)O)ncn2)cc1Cl    solubility        > 1000 µg/mL
5          COc1ccc(-c2cc(C(=O)O)ncn2)cc1Cl    solubility        > 1000 µg/mL

Report solubility for each item below.
1. O=C(O)c1cc(-c2ccc(OC(F)(F)F)c(Cl)c2)ncn1
2. O=C(O)c1cc(-c2ccc(OCC3CC3)c(Cl)c2)ncn1
3. O=C(O)c1cc(-c2ccc(OC3COC3)c(Cl)c2)ncn1
4. O=C(O)c1cc(-c2ccc(F)c(F)c2)ncn1
5. O=C(O)c1cc(-c2ccc(OC3CC3)c(Cl)c2)ncn1
6. O=C(O)c1cc(-c2ccc(OC3CCC3)c(Cl)c2)ncn1

1. > 1000 µg/mL
2. > 1000 µg/mL
3. > 1000 µg/mL
4. > 1000 µg/mL
5. > 1000 µg/mL
6. > 1000 µg/mL

Supply measured solubility of O=C(O)c1cc(-c2ccc(OC3CCCCC3)c(Cl)c2)ncn1 in your reply. 500 µg/mL

----------
assay: Lipophilicity, log P of the compound at pH 7; assay type: physicochemical; conditions: buffer
readout-name: logD
Numbers only.

Report logD for each item below.
1. O=C(O)c1cc(-c2ccc(F)c(F)c2)ncn1
2. O=C(O)c1cc(-c2cccc(F)c2)ncn1
3. O=C(O)c1cc(-c2ccccc2)ncn1
4. O=C(O)c1cc(-c2cccc(Cl)c2F)ncn1
5. Cc1cccc(-c2cc(C(=O)O)ncn2)c1
6. O=C(O)c1cc(-c2cccc(Cl)c2)ncn1
7. O=C(O)c1cc(-c2ccc(C(F)(F)F)c(Cl)c2)ncn1
8. O=C(O)c1cc(-c2ccc(F)c(C(F)(F)F)c2)ncn1

-0.45
-0.8
-0.98
-0.34
-0.19
0.12
1.35
0.45

Report logD for each item below.
1. COc1cc(-c2cc(C(=O)O)ncn2)ccc1Cl
2. Cc1ccc(-c2cc(C(=O)O)ncn2)cc1F
3. O=C(O)c1cc(-c2ccc(Cl)c(Cl)c2)ncn1
4. O=C(O)c1cc(-c2ccc(OC3CCCC3)c(Cl)c2)ncn1
5. Cc1ccc(-c2cc(C(=O)O)ncn2)cc1Cl
6. O=C(O)c1cc(-c2cc(Cl)c3occc3c2)ncn1

1: 0.59; 2: -0.33; 3: 1.12; 4: 2.18; 5: 0.8; 6: 0.85

Report logD for each item below.
1. CC(C)Oc1ccc(-c2cc(C(=O)O)ncn2)cc1Cl
2. COc1ccc(-c2cc(C(=O)O)ncn2)cc1Cl
3. O=C(O)c1cc(-c2ccc(OC3CCC3)c(Cl)c2)ncn1
4. O=C(O)c1cc(-c2ccc(Cl)cc2F)ncn1

1. 1.28
2. 0.28
3. 1.19
4. 0.44

Report logD for each item below.
1. O=C(O)c1cc(-c2cccc(C(F)(F)F)c2)ncn1
2. O=C(O)c1cc(-c2ccc(F)cc2F)ncn1

1. 0.36
2. -0.88
